Test system: Jurkat cells
Assay summary: Inhibition of proliferation of Jurkat cells (CellTiter-Glo, 72 hour)
Format: cell-based, human
Condition details: Homo sapiens, 10 μM to 316 pM
pIC50: −log10 of the molar value.
Measure: pIC50

These recorded examples may help you get a feel for the data.
[Q] # return recorded pIC50 for entry `C=CC(=O)N1CCC(NC[C@H]2CCC[C@@H](Nc3ncc(Cl)c(-c4c[nH]c5ccccc45)n3)C2)CC1`
[A] < 5.30

[Q] Please report pIC50 for the following compound: `CN(C)C/C=C/C(=O)NCCc1cc2ccc(Nc3ncc(Cl)c(-c4c[nH]c5ccccc45)n3)cc2[nH]1`
[A] > 6.30

[Q] For the compound `Nc1ccc(C(=O)N[C@H]2CCC[C@@H](Nc3ncc(Cl)c(-c4c[nH]c5ccccc45)n3)C2)nc1` , give its measured pIC50 value.
[A] 5.30 to 6.30

[Q] Please give measured pIC50 of the following entry: `NCCCCC(=O)N1CC[C@@H](Nc2ncc(Cl)c(-c3c[nH]c4ccccc34)n2)C1`
[A] 5.30 to 6.30

Others:
[Q] Give recorded pIC50. `C=CC(=O)N1CCC(C(=O)N2CC[C@@H](Nc3ncc(Cl)c(-c4c[nH]c5ccccc45)n3)C2)CC1`
[A] < 5.30

[Q] Give pIC50 for `CN(C)C/C=C/C(=O)NCCCCC(=O)N1CC[C@@H](Nc2ncc(Cl)c(-c3c[nH]c4ccccc34)n2)C1`
[A] 5.30 to 6.30

[Q] Please list pIC50 recorded for the compound `O=C(Nc1cccc(Nc2ncc(Cl)c(-c3c[nH]c4ccccc34)n2)c1)C1CCNCC1`
[A] 5.30 to 6.30

* * *

Subject of test: CDK7/Cyclin H/MAT1 trimeric complex (Homo sapiens, UniProt P50613)
Sequence (P50613 whole entry): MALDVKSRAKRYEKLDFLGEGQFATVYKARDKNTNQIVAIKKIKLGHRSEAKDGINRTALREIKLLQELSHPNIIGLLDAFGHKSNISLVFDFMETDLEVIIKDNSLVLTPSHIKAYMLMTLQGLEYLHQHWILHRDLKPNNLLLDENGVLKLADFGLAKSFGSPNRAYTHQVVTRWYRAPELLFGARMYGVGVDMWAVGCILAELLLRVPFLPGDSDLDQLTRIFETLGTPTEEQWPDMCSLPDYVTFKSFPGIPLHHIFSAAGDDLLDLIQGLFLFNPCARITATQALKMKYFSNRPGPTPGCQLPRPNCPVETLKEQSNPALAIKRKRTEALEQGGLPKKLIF
Sequence (P51946 whole entry partner): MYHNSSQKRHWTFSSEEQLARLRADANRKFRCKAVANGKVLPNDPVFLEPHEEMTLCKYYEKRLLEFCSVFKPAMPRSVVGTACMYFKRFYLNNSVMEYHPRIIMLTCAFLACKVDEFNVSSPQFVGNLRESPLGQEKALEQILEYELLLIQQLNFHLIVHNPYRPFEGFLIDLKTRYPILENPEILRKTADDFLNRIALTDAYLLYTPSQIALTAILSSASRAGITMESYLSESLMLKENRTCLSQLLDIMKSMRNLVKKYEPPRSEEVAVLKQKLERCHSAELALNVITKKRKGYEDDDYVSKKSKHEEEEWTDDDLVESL
Sequence (P51948 whole entry partner): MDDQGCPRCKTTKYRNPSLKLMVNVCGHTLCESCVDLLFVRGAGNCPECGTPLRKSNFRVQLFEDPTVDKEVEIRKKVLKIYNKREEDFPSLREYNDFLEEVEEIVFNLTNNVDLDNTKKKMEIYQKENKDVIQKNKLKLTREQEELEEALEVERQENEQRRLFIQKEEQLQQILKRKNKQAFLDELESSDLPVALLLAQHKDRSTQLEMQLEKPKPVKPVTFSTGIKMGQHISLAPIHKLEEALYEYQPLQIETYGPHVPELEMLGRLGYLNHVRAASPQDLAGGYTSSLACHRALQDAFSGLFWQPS
Assay summary: CDK7 kinase assay, Caliper/LabChip EZ Reader (Biortus Biosciences)
Condition details: CDK7/Cyclin H/MAT1 10 nM, ATP 2 mM, FAM-CDK7tide 2 μM, 30 min incubation, read-out: CDK7 Inhibition (IC50)
Procedure: Compounds of the invention were further assayed for CDK7 activity at Biortus Biosciences (Jiangyin, Jiangsu Province, P.R. of China) using a CDK7 kinase assay developed with a Caliper/LabChip EZ Reader (Perkin Elmer, Waltham, Mass.). […] The incubation period was chosen such that the total fraction of phosphorylated peptide product produced was <20% for the uninhibited kinase.
pIC50: −log10 of the molar value.
Measure: pIC50

Known results for compounds:
[Q] Answer with the recorded pIC50 of C=CC(=O)N1CCC[C@@H]1C(=O)N[C@H]1CCC[C@@H](Nc2ncc(Cl)c(-c3c[nH]c4ccccc34)n2)C1 [Compound 173] only.
[A] > 7.00

[Q] Please give measured pIC50 of the following entry: CN(C)C/C=C/C(=O)Nc1ccc(C(=O)N[C@@]2(C)CCC[C@@H](Nc3ncc(Cl)c(-c4c[nH]c5ccccc45)n3)C2)nc1 [Compound 267]
[A] > 7.00

More entries:
[Q] Note pIC50 for the compound shown: C=CC(=O)N1CCN(C2CCCC(Nc3ncc(Cl)c(-c4c[nH]c5ccccc45)n3)C2)C(C)C1 (stereo not drawn) [Compound 257]
[A] 6.00 to 7.00

[Q] Assign pIC50 to the following record: CN(C)C/C=C/C(=O)N1CCCC(N2CC(Nc3ncc(Cl)c(-c4c[nH]c5ccccc45)n3)C2)C1 (stereo not drawn) [compound 389]
[A] < 6.00

* * *

Subject of test: CDK7/Cyclin H/MAT1 trimeric complex (Homo sapiens, UniProt P50613)
Assay summary: CDK7 kinase assay, Caliper/LabChip EZ Reader (Biortus Biosciences)
Condition details: CDK7/Cyclin H/MAT1 10 nM, ATP 2 mM, FAM-CDK7tide 2 μM, 30 min incubation, read-out: CDK7 Inhibition (IC50)
pIC50: −log10 of the molar value.
Collected pIC50 values appear next to each entry.

[Q] Given the compound CN(C)C/C=C/C(=O)Nc1ccc(C(=O)N[C@H]2CCC[C@@H](Nc3ncc(Cl)c(-c4cccc5[nH]ccc45)n3)C2)nc1 [Compound 264] , write its reported pIC50.
[A] > 7.00

[Q] Tell me measured pIC50 for CN(C)CC=CC(=O)N1CCN(C2CCCC(Nc3ncc(Cl)c(-c4c[nH]c5ccccc45)n3)C2)CC1 (stereo not shown) [Compound 237] please.
[A] > 7.00

[Q] For the compound CN(C)C/C=C/C(=O)Nc1ccc(C(=O)N[C@H]2CCC[C@@H](Nc3ncc(Cl)c(C4C(=O)Nc5ccccc54)n3)C2)nc1 (stereo partly shown) [Compound 282] , give its reported pIC50.
[A] 6.00 to 7.00

[Q] Please give the documented pIC50 of CN(C)C/C=C/C(=O)Nc1ccc(CN[C@H]2CCC[C@@H](Nc3ncc(Cl)c(-c4c[nH]c5ccccc45)n3)C2)nc1 [Compound 261]
[A] > 7.00

---
[Q] Supply pIC50 value. Item: C=CC(=O)N1CC(F)(F)C[C@H]1C(=O)N[C@H]1CCC[C@@H](Nc2ncc(Cl)c(-c3c[nH]c4ccccc34)n2)C1 [Compound 116]
[A] > 7.00

[Q] Read off the recorded pIC50 for C=CC(=O)NC1CCCN(C2CCCC(Nc3ncc(Cl)c(-c4c[nH]c5ccccc45)n3)C2)C1 (mixture of isomers) [Compound 256]
[A] > 7.00

[Q] # return recorded pIC50 for input C=CC(=O)N1CCN([C@H]2CCC[C@@H](Nc3ncc(Cl)c(-c4c[nH]c5c(OC)cccc45)n3)C2)CC1 [compound 395]
[A] 6.00 to 7.00
